# Tested on: 898857-211-R-J1-PDC complex spheroids, growth % test/control;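 note: spheroids exposed to compound for seven days before readout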
# ASSAY REMARKS: Anticancer human tumor 898857-211-R-J1-PDC patient-derived melanoma cell line growth inhibition [RAS]
# ASSAY CONDITIONS: curve of first compound; second compound 0.0316 µM
pIC50: −log10 of the molar value.

MOLECULE	pIC50
CC(C)NCC(C(=O)N1CCN(c2ncnc3c2C(C)CC3O)CC1)c1ccc(Cl)cc1 (centres undefined) + C#Cc1c(F)ccc2cc(O)cc(-c3ncc4c(N5CC6CCC(C5)N6)nc(OCC56CCCN5CC(F)C6)nc4c3F)c12	< 5.00
C=CC(=O)N1CCN(c2nc(OCC3CCCN3C)nc3c(F)c(-c4nc(N)cc(C)c4C(F)(F)F)c(Cl)cc23)C(C)C1 (centres undefined) + C#Cc1c(F)ccc2cc(O)cc(-c3ncc4c(N5CC6CCC(C5)N6)nc(OCC56CCCN5CC(F)C6)nc4c3F)c12	< 6.00
C=CC(=O)Nc1cc(Nc2nccc(-c3cn(C)c4ccccc34)n2)c(OC)cc1N(C)CCN(C)C + C#Cc1c(F)ccc2cc(O)cc(-c3ncc4c(N5CC6CCC(C5)N6)nc(OCC56CCCN5CC(F)C6)nc4c3F)c12	< 6.00
NC1c2ccccc2OC12CCN(c1cnc3c(N4CCCc5ncccc54)n[nH]c3n1)CC2 (centres undefined) + C=CC(=O)N1CCN(c2nc(OCC3CCCN3C)nc3c(F)c(-c4nc(N)cc(C)c4C(F)(F)F)c(Cl)cc23)C(C)C1	< 5.00
